These data points were gathered from patent US20250026746A1.

target: human GC-A (Homo sapiens, UniProt P16066); assay: EC50 and Emax cGMP determination, HTRF, human GC-A overexpressing HEK293 cells; conditions: HEK293 GC-A cells, EC20 ANP; read-out: EC50 cGMP activities
Sequence (P16066 33-1061): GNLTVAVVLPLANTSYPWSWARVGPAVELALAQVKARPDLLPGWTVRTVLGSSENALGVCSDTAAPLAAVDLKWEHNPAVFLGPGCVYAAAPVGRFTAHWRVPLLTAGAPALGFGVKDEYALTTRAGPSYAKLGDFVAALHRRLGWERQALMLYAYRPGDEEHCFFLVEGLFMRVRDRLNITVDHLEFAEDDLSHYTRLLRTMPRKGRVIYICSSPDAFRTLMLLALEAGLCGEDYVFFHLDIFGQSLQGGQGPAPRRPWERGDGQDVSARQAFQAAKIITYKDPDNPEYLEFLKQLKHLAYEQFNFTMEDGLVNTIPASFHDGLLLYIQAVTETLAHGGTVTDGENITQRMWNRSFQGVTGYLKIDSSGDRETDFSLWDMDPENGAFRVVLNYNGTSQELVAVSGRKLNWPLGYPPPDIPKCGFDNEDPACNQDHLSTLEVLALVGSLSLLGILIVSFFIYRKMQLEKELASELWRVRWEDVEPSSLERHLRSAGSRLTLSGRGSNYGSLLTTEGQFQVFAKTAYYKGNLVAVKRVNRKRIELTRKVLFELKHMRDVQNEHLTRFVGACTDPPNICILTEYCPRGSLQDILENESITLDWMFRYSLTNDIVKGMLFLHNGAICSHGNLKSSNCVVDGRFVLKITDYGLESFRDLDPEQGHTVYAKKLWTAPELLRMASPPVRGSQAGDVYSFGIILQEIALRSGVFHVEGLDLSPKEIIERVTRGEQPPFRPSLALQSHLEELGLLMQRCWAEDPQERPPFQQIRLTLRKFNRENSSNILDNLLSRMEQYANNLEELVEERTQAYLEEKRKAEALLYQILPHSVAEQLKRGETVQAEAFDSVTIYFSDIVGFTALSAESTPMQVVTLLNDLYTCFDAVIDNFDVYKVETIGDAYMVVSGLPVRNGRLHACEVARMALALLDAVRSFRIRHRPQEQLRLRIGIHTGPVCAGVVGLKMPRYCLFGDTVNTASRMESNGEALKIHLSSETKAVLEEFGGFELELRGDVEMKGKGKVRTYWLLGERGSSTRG
Sequence (P01160 124-151 partner limits assumed): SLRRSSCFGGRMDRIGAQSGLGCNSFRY
Structures can show the parent of a compound that is named as a salt.
Response field label: string, one of Y (EC50 strictly below 600 nM) or N.

Request: EC50 under 600 nM? Item: CN(C)CCN1CCCC(C(=O)Nc2nc3c(F)cc(F)cc3s2)C1 (racemic) [Compound 3 acetate salt]
Response: Y

Request: Consider next the compound CN(C)CCN1CCC[C@H](C(=O)Nc2nc3c(F)cc(F)cc3s2)C1 [Compound 1 acetate salt] in the same way.
Response: Y

Request: What do you have for CN(C)CCN1CCC[C@@H](C(=O)Nc2nc3c(F)cc(F)cc3s2)C1 [Compound 2 TFA salt] ?
Response: N

Request: Here is the next compound: CN(C)CCN1CCCC(C(=O)Nc2nc3c(F)cc(F)cc3s2)C1 (racemic) [Compound 3 TFA salt]
Response: Y

Request: Also check CN(C)CCN1CCC[C@@H](C(=O)Nc2nc3c(F)cc(F)cc3s2)C1 [Compound 2 acetate salt]
Response: N

Request: For CN(C)CCN1CCC[C@H](C(=O)Nc2nc3c(F)cc(F)cc3s2)C1 [Compound 1 TFA salt] then?
Response: Y
